target.system: HLA-A*24 (peptide-receptive MHC class I monomer of the UV-ligand exchange assay) (human)
procedure.details: UV-ligand exchange with anti-b2m ELISA
result.type: peptide exchange yield

Provide peptide exchange yield values for the following items, in order.
1. VFQNFPLLF [Peptide SEQ ID NO: 184 (…)]
2. HYSQELSLLYL [Peptide SEQ ID NO: 158 (…)]
3. AYTLIAPNI [Peptide SEQ ID NO: 169 (…)]
4. YYEVHKELF [Peptide SEQ ID NO: 175 (…)]

Ans.
1. > 75%
2. > 75%
3. 50 to 75%
4. > 75%
